Please go through the items and note down their inhibition at 30 µM.
# measurement target: SH2-domain of STAT1 (Homo sapiens, UniProt P42224)
# Sequence (P42224 whole entry): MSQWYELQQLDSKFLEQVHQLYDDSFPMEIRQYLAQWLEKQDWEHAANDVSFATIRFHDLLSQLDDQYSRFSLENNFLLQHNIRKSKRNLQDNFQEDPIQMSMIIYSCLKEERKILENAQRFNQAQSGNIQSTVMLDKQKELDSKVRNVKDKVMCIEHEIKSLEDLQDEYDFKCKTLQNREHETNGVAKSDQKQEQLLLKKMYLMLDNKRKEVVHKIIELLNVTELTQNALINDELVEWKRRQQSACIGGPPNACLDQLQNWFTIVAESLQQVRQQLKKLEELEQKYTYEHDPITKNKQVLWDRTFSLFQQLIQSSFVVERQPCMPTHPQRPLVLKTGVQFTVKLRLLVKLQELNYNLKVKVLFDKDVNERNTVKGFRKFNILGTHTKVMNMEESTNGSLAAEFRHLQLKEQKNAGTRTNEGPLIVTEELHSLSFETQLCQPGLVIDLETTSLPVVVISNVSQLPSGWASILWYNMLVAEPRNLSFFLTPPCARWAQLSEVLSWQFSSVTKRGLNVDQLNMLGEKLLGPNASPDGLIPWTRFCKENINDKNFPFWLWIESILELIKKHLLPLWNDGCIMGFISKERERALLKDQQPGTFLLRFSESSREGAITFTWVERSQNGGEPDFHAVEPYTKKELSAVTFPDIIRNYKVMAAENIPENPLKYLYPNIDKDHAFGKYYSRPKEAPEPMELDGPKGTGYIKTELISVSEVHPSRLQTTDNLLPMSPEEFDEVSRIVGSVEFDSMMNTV
# measurement notes: STAT AlphaScreen-based assay (STAT1 selectivity)
# Format: binding
# condition parameters: read-out: STAT1 % inhibition ± SD at 30 μM, 30 μM
Report only the number, with the unit % understood.

Record `COCCOCOc1ccc(/C=C/C(=O)OCCSS(C)(=O)=O)cc1OCOCCOC` , field inhibition at 30 µM: 98.4

Reported inhibition at 30 µM of `COc1cc(/C=C/C(=O)OCCCCSS(C)(=O)=O)ccc1O` : 86

// field: inhibition at 30 µM; key: `CS(=O)(=O)SCCOC(=O)/C=C/c1ccc(O)c(O)c1` ; value = 85.7

# compound `COc1cc(/C=C/C(=O)NCCSS(C)(=O)=O)ccc1O` ; its inhibition at 30 µM = 4.1

Record `COc1ccc(/C=C/C(=O)OCCSS(C)(=O)=O)cc1OC` , field inhibition at 30 µM: 68.9

// sample CC(C)c1cc2c(c(O)c1O)C13CCCC(C)(C)C1C(OC3=O)C2N (stereo not shown) , its inhibition at 30 µM was 91.8

Record summary for `COc1cc(/C=C/C(=O)OCCSS(C)(=O)=O)ccc1O` : reported inhibition at 30 µM = 110

Measured inhibition at 30 µM of `COc1cc(/C=C/C(=O)Oc2ccc(-c3cc(=S)ss3)cc2)ccc1O` : 44.2

`CS(=O)(=O)SCCNC(=O)/C=C/c1ccc(O)c(O)c1` yielded inhibition at 30 µM of -17.8

Measured inhibition at 30 µM of `COCCOCOc1ccc(/C=C/C(=O)NCCSS(C)(=O)=O)cc1OCOCCOC` : 63.3

Lab note: CS(=O)(=O)SCCOC(=O)C=Cc1ccccc1 [Compound 25, 2-(Methylsulfonylthio)ethyl cinnamate] gave inhibition at 30 µM of 100

// CC(C)c1cc2c(c(O)c1O)C13CCCC(C)(C)C1C(OC3=O)C2NC(=O)CCCCSS(C)(=O)=O (stereo not shown) : inhibition at 30 µM value = 99.9

Briefly, inhibition at 30 µM measured for `COC(=O)CCCCSS(C)(=O)=O` : 70.8
